System: HCT-15 colon
Test: NCI tumour cell line growth inhibition, 48 h
measurement.label: TGI (µM)
Express your answer in µM, writing the number without its unit.

Provide TGI value for the following compound: CC(C)(C)C1CCC2c3c([nH]c4ccccc34)C3C(=O)N(c4ccccc4Cl)C(=O)C3C2C1 (stereo not given)
31.6

Identify measured TGI corresponding to CSc1ccc2c(cc1=O)[C@@H](NC(=O)c1ccc(Cl)cc1)CCc1cc(O)c(O)c(O)c1-2
51.7

Return TGI for the following compound: Clc1cc(Cl)c2cc3cccc[n+]3cc2c1Cl
36.1

---

Test system: OVCAR-4 ovarian
Experiment: NCI tumour cell line growth inhibition, 48 h
Task for the reader: assign each of the following compounds its reported TGI.

Give the value of TGI reported for the following: CCN(CC)CC(C)C(=O)/C=C/c1ccc(C)cc1 (stereo not given)
4.26 µM

Please report TGI for the following compound: Nc1ccc(O)c2c1C(=O)c1c(N)ccc(O)c1C2=O
> 100 µM

Tell me its TGI given Cc1cc(C)nc(NS(=O)(=O)c2ccc(Nc3c4ccccc4nc4c(C(=O)NC(CO)(CO)CO)cccc34)cc2)n1 as the entry.
> 100 µM

For the compound CON(C)C(=O)[C@H]1C[C@@]1(C)CO , give its reported TGI.
> 100 µM

Please give measured TGI of the following entry: O=c1cc(NNCc2ccccc2)[nH]c(=O)[nH]1
> 100 µM

Provide measured TGI value, entry: N/N=C(\c1nc2ccc([N+](=O)[O-])cc2[nH]c1=O)C(O)c1ccc(Cl)c(Cl)c1 (stereo not given)
> 100 µM

State, in one line, measured TGI of CCOC(=O)Cc1nnc2n(-c3ccccc3)c(=O)c3ccccc3n12
> 100 µM

Please report the measured TGI for COC1=C(C)C(=O)c2c(c(CCCl)c3n2CCC3OC(C)=O)C1=O (stereo not given)
38.6 µM

Supply TGI value. Item: CN(C)CC(=O)Nc1ccc2ncnc(Nc3ccc(Oc4cccc(C(F)(F)F)c4)c(Cl)c3)c2c1
5.83 µM

Supply TGI value. Item: O=C(NCCC1CN(C(=O)OCc2ccccc2)c2ccccc21)OCc1ccccc1 (stereo not given)
> 100 µM

---

measurement.label: GI50

Check U251 CNS data and give GI50 for NC1CCCCC1N.O=C1C=C/C(=C(/c2ccc(O)c(Br)c2)c2ccccc2S(=O)(=O)[O-])C=C1Br.O=C1C=C/C(=C(/c2ccc(O)c(Br)c2)c2ccccc2S(=O)(=O)[O-])C=C1Br.[Pt+4] .
5210 nM

Jot down GI50 (U251 CNS) of COC(=O)c1cc2oc(/C=C3/SC(=S)N(N)C3=O)cc2n1Cc1ccccc1 .
3970 nM

// fetch GI50; item: COc1cc(N2C(=O)[C@H](c3ccccc3)C2c2ccc(SC)cc2)cc(OC)c1OC (some centres undefined) ; system: U251 CNS
37.5 nM

Param request: GI50 | system U251 CNS | item COc1cc(/C=C/c2cc(/C=C/c3ccc(O)c(OC)c3)n(C(=O)Nc3ccccc3Cl)n2)ccc1O
384 nM

---

Tested on: SF-295 CNS
Experiment: NCI tumour cell line growth inhibition, 48 h
For each record, write down the corresponding TGI.
Dear colleague, please return just the value in µM, with no unit written.

Look up and state reported TGI for COc1cc(CNCCN2C(=O)c3ccc4c5c(ccc(c35)C2=O)C(=O)N(CCNCc2cc(OC)c(OC)c(OC)c2)C4=O)cc(OC)c1OC
1.3

Look up and report measured TGI for this entry: COc1ccc(N2C(=O)C3c4[nH]c5ccccc5c4C4CC(C)(C)CC(C)(C)C4C3C2=O)cc1 (stereo not given)
21.4

Dear colleague, please send me the reported TGI for CN(C)CC(=O)Nc1ccc2ncnc(Nc3ccc(Oc4cccc(C(F)(F)F)c4)c(Cl)c3)c2c1 when you can.
4.28

Determine its reported TGI: CCOc1ccc(/C=C/c2cc(OC)c(OC)c(OC)c2)cc1
16.9

Indicate the recorded TGI value for this compound: COc1cc(/C=C/c2cc(/C=C/c3ccc(O)c(OC)c3)n(C(=O)Nc3ccccc3Cl)n2)ccc1O
3.3
